- TARGET OR SYSTEM: Recombinant human JAK3 catalytic domain (Homo sapiens (Human), UniProt P52333)
- Sequence (P52333 822-1111): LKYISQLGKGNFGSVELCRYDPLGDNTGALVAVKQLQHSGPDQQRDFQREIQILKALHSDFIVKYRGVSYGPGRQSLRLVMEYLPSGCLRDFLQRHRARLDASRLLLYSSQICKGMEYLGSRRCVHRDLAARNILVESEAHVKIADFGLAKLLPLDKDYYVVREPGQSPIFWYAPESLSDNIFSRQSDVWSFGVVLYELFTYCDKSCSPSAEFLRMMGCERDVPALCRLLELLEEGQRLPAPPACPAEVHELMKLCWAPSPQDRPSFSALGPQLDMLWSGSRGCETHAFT
- ASSAY DETAILS: JAK3 kinase assay (Z'-LYTE, Tyr 6 Peptide)
- Assay type: biochemical
- STATED CONDITIONS: read-out: IC50 in JAK3 kinase assay
Attribute: IC50

Before answering, review these 5 worked examples.
>  <SMILES>
CN(c1cnc(C#N)cn1)[C@@H]1CCN(c2ncnc3[nH]ccc23)C1

>  <IC50>
0.1 to 1 µM

$$$$
>  <SMILES>
CN(c1ncccc1C#N)[C@@H]1CCN(c2ncnc3[nH]ccc23)C1

>  <IC50>
0.1 to 1 µM

$$$$
>  <SMILES>
COC[C@H](NC(=O)c1ccc(N(C)[C@@H]2CCN(c3ncnc4[nH]ccc34)C2)nc1)c1ccccc1

>  <IC50>
0.001 to 0.1 µM

$$$$
>  <SMILES>
CN(C(=O)Nc1ccc(C#N)cc1)[C@@H]1CCN(c2ncnc3[nH]ccc23)C1

>  <IC50>
0.1 to 1 µM

$$$$
>  <SMILES>
C#CCN(c1c(F)cc(C#N)cc1F)[C@@H]1CCN(c2ncnc3[nH]ccc23)C1

>  <IC50>
0.001 to 0.1 µM

$$$$

I'd like to know its IC50. The compound in question is CN(c1ncc(Br)cn1)[C@@H]1CCN(c2ncnc3[nH]ccc23)C1
0.1 to 1 µM

N#Cc1ccc(N[C@@H]2CCN(c3ncnc4[nH]ccc34)C2)nc1 ?
0.1 to 1 µM

CN(c1ccc(C#N)nn1)[C@@H]1CCN(c2ncnc3[nH]ccc23)C1 ?
0.1 to 1 µM

CN(c1ccc(C(=O)NCCO)cn1)[C@@H]1CCN(c2ncnc3[nH]ccc23)C1 ?
0.1 to 1 µM

These measurements were taken from patent US9346810B2.
